Study System: T1, human apical domain of CD71 (human, UniProt P02786 189-383, limits assumed)
T1 construct: domain: apical domain
T1 sequence (P02786 189-383 limits assumed): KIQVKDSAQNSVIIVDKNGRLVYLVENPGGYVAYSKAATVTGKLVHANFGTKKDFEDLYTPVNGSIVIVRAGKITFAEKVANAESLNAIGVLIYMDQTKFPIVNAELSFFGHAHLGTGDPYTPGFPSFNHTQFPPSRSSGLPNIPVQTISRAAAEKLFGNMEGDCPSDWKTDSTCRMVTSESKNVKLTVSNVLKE
Protocol: primary ELISA; note: test concentration or dose not given here
Reported Endpoint: RLU (RLU)

Before answering, review these 4 worked examples.
{"columns": ["Binder", "RLU / RLU"],
 "data": [
  ["CD71-binding FN3 domain SEQ ID NO 382 (designed binder) MLPAPKNLVVSRVTEDSARLSWTAPDAAFDSFFIGYLEPQPPGEAIELYVPGSERSYDLTGLKPGTEYNVTIQGVKGGFPSDPLEADFTT", "2.55e+06"],
  ["CD71-binding FN3 domain SEQ ID NO 364 (designed binder) MLPAPNNLVVSRVTEDSARLSWTAPDAAFDSFFIGYLEPQPPGEAIHLFVPGSERSYDLTGLKPGTEYNVTIQGVKGGFPSGPLHATFTT", "6.5e+06"],
  ["CD71-binding FN3 domain SEQ ID NO 356 (designed binder) MLPAPKNLVVSRITEDSARLSWTAPDAAFDSFFIGYLEPQPPGEAITLLVPASERSYDLTGLKPGTEYNVTIQGVKGGFPSHPLQAQFTT", "6.37e+06"],
  ["CD71-binding FN3 domain SEQ ID NO 370 (designed binder) MLPAPKNLVVSRVTEDSARLSWTAPDAAFDSFYIAYAEPRPDGEAIVLVVPGSERSYDLTGLKPGTEYSVLIHGVKGGLLSSPLSAHFTT", "4.83e+06"]
]}

I. CD71-binding FN3 domain SEQ ID NO 366 (designed binder) MLPAPKNLVVSRVTEDSARLSWTAPDAAFDSFFIGYLEPQPPGEAIDLWVPGSERSYDLTGLKPGTEYNVTIQGVKGGFPSNPLKAQFTT
II. CD71-binding FN3 domain SEQ ID NO 379 (designed binder) MLPAPKNLVVSRVTEDSARLSWTAPDAAFDSFYIEYWEGYRSGEAIVLTVPGSERSYDLTGLKPGTEYRVHIWGVKGGAVSYPLSAIFTT
Identify the entry with the larger RLU. Options: I and II Answer by quoting the chosen item's label.
II
